Recorded Lck Activity above control (1 µM) by entry
study.target: Lck (Homo sapiens)
Construct: purchased Eurofins Pharma Discovery Services UK Limited
protocol.details: Lck Activity above control (1 µM)
Where no end group is shown, it is not given here.
Record the value in %, omitting the unit from your answer.

Here's what some known entries look like.
{"substance": "RVKVKVVVV-RHRHRHRHRHRHRHRH-HH (SEQ ID NO: 61, IK52820) (RVKVKVVVVRHRHRHRHRHRHRHRHHH)", "study.target": "Lck (Homo sapiens)", "recorded.number": 408}
{"substance": "RSKAKNPLY-RRRRRRRRR-HHHHHHHHHHHH (SEQ ID NO: 49, IK14820) (RSKAKNPLYRRRRRRRRRHHHHHHHHHHHH)", "study.target": "Lck (Homo sapiens)", "recorded.number": 556}
{"substance": "RVKVKVVVV-RRRRR (SEQ ID NO: 56, IK15400) (RVKVKVVVVRRRRR)", "study.target": "Lck (Homo sapiens)", "recorded.number": 382}
{"substance": "RVKVKVVVV-RRRRRRRRR-HHHHHHHHHH (SEQ ID NO: 60, IK50810) (RVKVKVVVVRRRRRRRRRHHHHHHHHHH)", "study.target": "Lck (Homo sapiens)", "recorded.number": 778}
{"substance": "Branched < RSKAKNPLY-RRRRRRRRR-HHHHHHHHHH (SEQ ID NO: 48, Br IK14810) (RSKAKNPLYRRRRRRRRRHHHHHHHHHH; also: branched (1)..(28))", "study.target": "Lck (Homo sapiens)", "recorded.number": 596}
{"substance": "RRRRRRRR-RVKVKVVVV-R (SEQ ID NO: 59, IK80150) (RRRRRRRRRVKVKVVVVR)", "study.target": "Lck (Homo sapiens)", "recorded.number": 520}
{"substance": "KEKLKNPLFK-RRRRRRRR-HHHHHHHHHH (SEQ ID NO: 64, IKB2810) (KEKLKNPLFKRRRRRRRRHHHHHHHHHH)", "study.target": "Lck (Homo sapiens)", "recorded.number": 379}
{"substance": "RSKAKNPLY-RKRKRKRKRK (SEQ ID NO: 54, IK94RK0) (RSKAKNPLYRKRKRKRKRK)", "study.target": "Lck (Homo sapiens)", "recorded.number": 456}
{"substance": "RVKVKVVVV (SEQ ID NO: 55, IK95000)", "study.target": "Lck (Homo sapiens)", "recorded.number": 518}
{"substance": "HHHHH-RSKAKNPLY-RRRRRRRRR-HHHHH (SEQ ID NO: 53, IK51455) (HHHHHRSKAKNPLYRRRRRRRRRHHHHH)", "study.target": "Lck (Homo sapiens)", "recorded.number": 685}

Inquiry: For the substance shown here, RVKVKVVVV-RRRRRRRRR (SEQ ID NO: 58, IK15800) (RVKVKVVVVRRRRRRRRR) , give the reported Lck Activity above control (1 µM).
Reply text: 479

Inquiry: For the substance shown here, RVKVKVVVV-RRRRRRRR (SEQ ID NO: 57, IK15700) (RVKVKVVVVRRRRRRRR) , give the reported Lck Activity above control (1 µM).
Reply text: 512

Inquiry: For the substance shown here, RRRRRRRR-HHHHHHHHHH-RSKAKNPLYR (SEQ ID NO: 52, IK81140) (RRRRRRRRHHHHHHHHHHRSKAKNPLYR) , give the reported Lck Activity above control (1 µM).
Reply text: 567

Inquiry: For the substance shown here, HHHHH-RRRRRRRRR-HHHHH-RSKAKNPLYR (SEQ ID NO: 51, IK59514) (HHHHHRRRRRRRRRHHHHHRSKAKNPLYR) , give the reported Lck Activity above control (1 µM).
Reply text: 441

Inquiry: For the substance shown here, RSKAKNPLY-RRRRRRRRR-HHHHH (SEQ ID NO: 46, IK14510) (RSKAKNPLYRRRRRRRRRHHHHH) , give the reported Lck Activity above control (1 µM).
Reply text: 524
